Test system: Ruminococcus gnavus DSM 108212
assay-notes: fold change of Tryptamine concentration vs plate DMSO controls (fold change (ratio)); higher = more amine produced, active = hit call of the paper (significant change in both replicates, either direction);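 for the amine columns active = adjusted P below 0.05 in both replicates with a change the same way and a mean fold change under 0.8 or over 1.25; inactive = the rest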
recorded-conditions: incubation time: 27 h, anaerobic, 37 °C
Structures can show the parent of a compound that is named as a salt.
A correct response names exactly one class from 1.0 for active, 0.0 for inactive

compound	assigned-class
Cc1cccc(C)c1OCC(C)N (stereo unspecified) [Mexiletine hydrochloride] (20 µM)	0.0
CCCCC(=O)N(Cc1ccc(-c2ccccc2-c2nnn[nH]2)cc1)[C@H](C(=O)O)C(C)C [Valsartan] (20 µM)	0.0
Nc1nc(=O)c2nc(CNc3ccc(C(=O)N[C@@H](CCC(=O)O)C(=O)O)cc3)cnc2[nH]1 [Folic acid] (20 µM)	0.0
CC(C(=O)O)c1ccc(N2Cc3ccccc3C2=O)cc1 (stereo unspecified) [Indoprofen] (20 µM)	0.0
NS(=O)(=O)c1cc2c(cc1C(F)(F)F)NC(Cc1ccccc1)NS2(=O)=O (stereo unspecified) [Bendroflumethiazide] (20 µM)	0.0
NC[C@H]1O[C@H](O[C@H]2[C@H](O)[C@@H](O[C@H]3O[C@H](CO)[C@@H](O)[C@H](N)[C@H]3O)[C@H](N)C[C@@H]2N)[C@H](N)[C@@H](O)[C@@H]1O [Kanamycin B] (20 µM)	0.0
CCCCc1nc(Cl)c(CO)n1Cc1ccc(-c2ccccc2-c2nnn[nH]2)cc1 [Losartan] (20 µM)	0.0
O=C1[C@H](CC[C@H](O)c2ccc(F)cc2)[C@@H](c2ccc(O)cc2)N1c1ccc(F)cc1 [Ezetimibe] (20 µM)	0.0
CCCCOCCOCCOCc1cc2c(cc1CCC)OCO2 [Piperonyl butoxide] (20 µM)	0.0
Cc1cc2cc3c(C)cc(=O)oc3c(C)c2o1 [Trioxsalen] (20 µM)	0.0

Call for entry CC(C(=O)O)c1ccc(-c2ccccc2)c(F)c1 (stereo unspecified) [Flurbiprofen] (20 µM) :
0.0

Call for entry CCOC(=O)[C@H](CCc1ccccc1)N[C@@H](C)C(=O)N1CCC[C@H]1C(=O)O [Enalapril maleate] (20 µM) :
0.0

Call for entry COC(=O)Nc1nc2cc(Sc3ccccc3)ccc2[nH]1 [Fenbendazole] (20 µM) :
0.0

Call for entry CN1CCN(c2c(F)cc3c(=O)c(C(=O)O)cn(CCF)c3c2F)CC1 [Fleroxacin] (20 µM) :
0.0

Call for entry CC(C)COCC(CN(Cc1ccccc1)c1ccccc1)N1CCCC1 (stereo unspecified) [Bepridil hydrochloride] (20 µM) :
1.0

Call for entry O=C1CN(/N=C/c2ccc([N+](=O)[O-])o2)C(=O)N1 [Nitrofurantoin] (20 µM) :
0.0

---

Tested on: Escherichia coli IAI1
assay-notes: growth (OD595) fold change vs plate DMSO controls (fold change (ratio)); higher = more growth
recorded-conditions: incubation time: 27 h, anaerobic, 37 °C
Structures can show the parent of a compound that is named as a salt.
Catalogue of growth values
Respond with the number and no other words.

compound	study-system	quantitative-result
CCCNC(C)C(=O)Nc1ccccc1C (centres undefined) [Prilocaine hydrochloride] (20 µM)	Escherichia coli IAI1	0.973

Query growth on Escherichia coli IAI1 for CC(C)NCC(O)COc1cccc2[nH]c3ccccc3c12 (centres undefined) [Carazolol] (20 µM)
1

Query growth on Escherichia coli IAI1 for Cc1ccc(O)c([C@H](CCN(C(C)C)C(C)C)c2ccccc2)c1 [Tolterodine tartrate] (20 µM)
1.24

Query growth on Escherichia coli IAI1 for COc1cc([C@@H]2c3cc4c(cc3[C@@H](O[C@@H]3O[C@@H]5CO[C@@H](C)O[C@H]5[C@H](O)[C@H]3O)[C@H]3COC(=O)[C@H]23)OCO4)cc(OC)c1O [Etoposide] (20 µM)
1.05

---

Tested on: Klebsiella aerogenes DSM 30053
assay-notes: fold change of Cadaverine concentration vs plate DMSO controls (fold change (ratio)); higher = more amine produced, active = hit call of the paper (significant change in both replicates, either direction)
recorded-conditions: incubation time: 27 h, anaerobic, 37 °C
Where a name gives a salt, the structure may show the parent alone.
reported-endpoint: fold change of Cadaverine concentration
Respond with the number and no other words.

Reference set, count: 3
molecule	fold change of Cadaverine concentration
CCCCc1nc(Cl)c(CO)n1Cc1ccc(-c2ccccc2-c2nnn[nH]2)cc1 [Losartan] (20 µM)	1
CC1=C(/C=C/C(C)=C/C=C/C(C)=C\C(=O)O)C(C)(C)CCC1 [Isotretinoin] (20 µM)	0.991
CNCCC(Oc1ccc(C(F)(F)F)cc1)c1ccccc1 (centres undefined) [Fluoxetine hydrochloride] (20 µM)	0.995

Turning now to a further molecule:
Query fold change of Cadaverine concentration on Klebsiella aerogenes DSM 30053 for COc1ccc([C@@H]2Sc3ccccc3N(CCN(C)C)C(=O)[C@@H]2OC(C)=O)cc1 [Diltiazem hydrochloride] (20 µM)
0.993

---

Tested on: Clostridium sporogenes DSM 1664
assay-notes: growth (OD595) fold change vs plate DMSO controls (fold change (ratio)); higher = more growth
recorded-conditions: incubation time: 27 h, anaerobic, 37 °C
Counter-ions that a name gives are not always drawn.
reported-endpoint: growth
Respond with the number and no other words.

Reference set, count: 7
compound	growth
COc1ccc(C2CNC(=O)C2)cc1OC1CCCC1 (stereo not drawn) [Rolipram] (20 µM)	0.936
CCN(CC)CCNc1ccc(CO)c2sc3ccccc3c(=O)c12 [Hycanthone] (20 µM)	1.05
COc1cc2c(cc1OC)C(=O)C(CC1CCN(Cc3ccccc3)CC1)C2 (stereo not drawn) [Donepezil hydrochloride] (20 µM)	1.2
CCCCC(CC)CN1CN(CC(CC)CCCC)CC(C)(N)C1 (stereo not drawn) [Hexetidine] (20 µM)	1.05
CNCCC(Oc1ccccc1OC)c1ccccc1 (stereo not drawn) [Nisoxetine hydrochloride] (20 µM)	0.994
COc1ccccc1N1CCN(CCCNc2cc(=O)n(C)c(=O)n2C)CC1 [Urapidil hydrochloride] (20 µM)	0.984
Cc1cnc(C(=O)NCCc2ccc(S(=O)(=O)NC(=O)NC3CCCCC3)cc2)cn1 [Glipizide] (20 µM)	1.11

Turning now to a further compound:
Query growth on Clostridium sporogenes DSM 1664 for Cc1ccc2c(c1)c1c3n2CCNC3CCC1 (stereo not drawn) [Pirlindole mesylate] (20 µM)
0.975

---

Test system: Clostridium sporogenes DSM 1664
assay-notes: fold change of Tryptamine concentration vs plate DMSO controls (fold change (ratio)); higher = more amine produced, active = hit call of the paper (significant change in both replicates, either direction);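 for the amine columns active = adjusted P below 0.05 in both replicates with a change the same way and a mean fold change under 0.8 or over 1.25; inactive = the rest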
recorded-conditions: incubation time: 27 h, anaerobic, 37 °C
Where a name gives a salt, the structure may show the parent alone.
A correct response names exactly one class from active, inactive

molecule	study-system	assigned-class
CN1CCOC(c2ccccc2)c2ccccc2C1 (stereo unspecified) [Nefopam hydrochloride] (20 µM)	Clostridium sporogenes DSM 1664	inactive
CC1CCc2cc(F)cc3c(=O)c(C(=O)O)cn1c23 (stereo unspecified) [Flumequine] (20 µM)	Clostridium sporogenes DSM 1664	active
NCCCCCC(=O)O [Aminocaproic acid] (20 µM)	Clostridium sporogenes DSM 1664	inactive
COC(=O)N/N=C/c1c[n+]([O-])c2ccccc2[n+]1[O-] [Carbadox] (20 µM)	Clostridium sporogenes DSM 1664	active
C=C1c2cccc(O)c2C(O)=C2C(=O)[C@]3(O)C(O)=C(C(N)=O)C(=O)[C@@H](N(C)C)[C@@H]3[C@@H](O)[C@H]12 [Methacycline hydrochloride] (20 µM)	Clostridium sporogenes DSM 1664	active
c1ccc([C@H]2CN3CCSC3=N2)cc1 [Levamisole hydrochloride] (20 µM)	Clostridium sporogenes DSM 1664	inactive
CCOC(=O)NNc1nncc2ccccc12 [Todralazine hydrochloride] (20 µM)	Clostridium sporogenes DSM 1664	inactive
CC1=C(C(=O)O)N2C(=O)[C@@H](NC(=O)[C@H](N)C3=CCC=CC3)[C@H]2SC1 [Cephradine monohydrate] (20 µM)	Clostridium sporogenes DSM 1664	inactive

Call for entry CN1CCN2c3ncccc3Cc3ccccc3C2C1 (stereo unspecified) [Mirtazapine] (20 µM) :
inactive

Call for entry CC(=O)Nc1ccccc1 [Acetanilide] (20 µM) :
inactive

Call for entry CN1CCCN=C1/C=C/c1cccc(O)c1 [Oxantel pamoate] (20 µM) :
inactive

Call for entry C#C[C@]1(O)CC[C@H]2[C@@H]3CCc4cc(O)ccc4[C@H]3CC[C@@]21C [Ethinylestradiol] (20 µM) :
inactive

Call for entry C[C@]12CC[C@H]3C(=CCc4cc(O)ccc43)[C@@H]1CCC2=O [Equilin] (20 µM) :
inactive

Call for entry CC(C)Cc1ccc(C(C)C(=O)OCc2ccccn2)cc1 (stereo unspecified) [Ibuprofen Piconol] (20 µM) :
inactive

Call for entry C=CC[C@@H]1/C=C(\C)C[C@H](C)C[C@H](OC)[C@H]2O[C@@](O)(C(=O)C(=O)N3CCCC[C@H]3C(=O)O[C@H](/C(C)=C/[C@@H]3CC[C@@H](O)[C@H](OC)C3)[C@H](C)[C@@H](O)CC1=O)[C@H](C)C[C@@H]2OC [Tacrolimus Monohydrate] (20 µM) :
inactive

Call for entry OC(CCN1CCCCC1)(c1ccccc1)C1CC2C=CC1C2 (stereo unspecified) [Biperiden hydrochloride] (20 µM) :
inactive
